# System: CAKI-1 renal
# assay_notes: NCI tumour cell line growth inhibition, 48 h
reported_endpoint: TGI (µM)

- compound: "O=C1NCC(NC(=O)C(F)(F)F)c2c(Br)sc(Br)c21 (stereo not given)"
  unit_annotation: "µM"
  bound_type: ">"
  value_measured: 100
- compound: "Cn1c(=O)c2c(nc(C(=N)SCC(=O)O)n2C)n(C)c1=O"
  unit_annotation: "µM"
  bound_type: "="
  value_measured: 99
- compound: "O=C(CC(=O)C1CCOC1=O)C(=O)Nc1cccc(Cl)c1 (stereo not given)"
  unit_annotation: "µM"
  bound_type: ">"
  value_measured: 100
- compound: "COc1cc(/C=C2\\[C@H]3c4c(c(OC)c(C)c(OC)c4OC)CC(C(=O)N2Cc2ccccc2)N3C)c(OC)c(C)c1OC"
  unit_annotation: "µM"
  bound_type: "="
  value_measured: 73.6
- compound: "Cc1cn(-c2cc(C(=O)Nc3cccc(-n4ccc5c(NC(=O)c6ccccc6)nccc54)c3)cc(C(F)(F)F)c2)cn1"
  unit_annotation: "µM"
  bound_type: "="
  value_measured: 2.99
- compound: "C/C1=C\\CC[C@@]2(C)O[C@@H]2C[C@@H](C2(C)CO2)CC/C(C)=C/CC1 (stereo not given in full)"
  unit_annotation: "µM"
  bound_type: "="
  value_measured: 39.9
- compound: "COc1cc(/C=C\\c2cc(OC)c(OC)c(OC)c2)cc(N/C=C\\C(=O)c2c[nH]c3ccccc23)c1OC"
  unit_annotation: "µM"
  bound_type: "="
  value_measured: 2.95
- compound: "Cn1ccnc1C(O)(c1nccn1C)c1nccn1C"
  unit_annotation: "µM"
  bound_type: ">"
  value_measured: 100
- compound: "CCC1CN2CCc3cc(OC)c(OC)cc3C2CC1CC1c2cc(OC)c(OC)cc2CCN1C(=O)C1CCCN1 (stereo not given)"
  unit_annotation: "µM"
  bound_type: ">"
  value_measured: 100
- compound: "COc1cc2nc(-c3cccs3)oc(=O)c2cc1OC"
  unit_annotation: "µM"
  bound_type: ">"
  value_measured: 100
